These measurements were taken from patent US12180193B2.

Measured DC50 values are reported for all entries that follow.
# System under test: BRAF V600E (Homo sapiens, UniProt P15056, V600E)
# Construct: expressed in transfected cells
# Sequence (P15056 whole entry V600E): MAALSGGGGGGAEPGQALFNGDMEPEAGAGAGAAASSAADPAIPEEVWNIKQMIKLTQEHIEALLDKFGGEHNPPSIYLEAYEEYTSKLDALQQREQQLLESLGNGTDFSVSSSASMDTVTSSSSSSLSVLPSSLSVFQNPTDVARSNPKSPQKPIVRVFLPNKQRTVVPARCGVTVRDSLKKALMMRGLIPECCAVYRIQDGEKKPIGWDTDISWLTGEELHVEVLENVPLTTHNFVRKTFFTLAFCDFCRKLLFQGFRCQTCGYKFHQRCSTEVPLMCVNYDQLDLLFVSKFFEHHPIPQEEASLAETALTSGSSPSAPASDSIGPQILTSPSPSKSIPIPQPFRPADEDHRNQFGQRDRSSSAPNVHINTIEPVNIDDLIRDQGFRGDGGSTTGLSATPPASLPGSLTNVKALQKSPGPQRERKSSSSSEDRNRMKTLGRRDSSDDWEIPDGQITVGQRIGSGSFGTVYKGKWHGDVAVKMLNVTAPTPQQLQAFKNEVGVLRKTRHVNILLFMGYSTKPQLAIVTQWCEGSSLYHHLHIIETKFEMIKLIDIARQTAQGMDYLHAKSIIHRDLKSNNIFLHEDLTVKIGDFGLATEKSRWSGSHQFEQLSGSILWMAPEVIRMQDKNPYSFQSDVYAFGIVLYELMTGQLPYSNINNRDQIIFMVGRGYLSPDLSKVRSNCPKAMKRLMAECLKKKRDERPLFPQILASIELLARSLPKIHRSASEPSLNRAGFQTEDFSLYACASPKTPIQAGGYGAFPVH
# Protocol text: Cellular assay of target protein degradation, T-Rex 293 cells stably transfected with HA-BRAF_V600E (HA immunofluorescence, high content imaging)
# Assay type: cell-based
# Experimental setup: half maximal degradation, T-Rex 293 HA-BRAF V600E; read-out: BRaf V600E DC50

Take a look at these entries with their results.
Compound	System under test	DC50
O=C1CC[C@H](NC(=O)N2CCCc3c(N4CC5(CN(CCc6ccc(-c7cnc8[nH]cc(C(=O)c9c(F)ccc(NS(=O)(=O)N%10CC[C@@H](F)C%10)c9F)c8c7)cc6)C5)C4)ccnc32)C(=O)N1	BRAF V600E (Homo sapiens, UniProt P15056, V600E)	50 to 500 nM
O=C1CC[C@H](N2Cc3cc(C4CCN(CC5CCN(c6ccc(-c7cnc8[nH]cc(C(=O)c9c(Cl)ccc(NS(=O)(=O)N%10CC[C@@H](F)C%10)c9Cl)c8c7)cc6)CC5)CC4)ccc3C2=O)C(=O)N1	BRAF V600E (Homo sapiens, UniProt P15056, V600E)	5 to 50 nM
O=C1CCC(N2Cc3cc(N4CCN(CC5CCN(c6ccc(-c7cnc8[nH]cc(C(=O)c9c(F)ccc(NS(=O)(=O)N%10CC[C@@H](F)C%10)c9F)c8c7)cc6)CC5)CC(F)(F)C4)ccc3C2=O)C(=O)N1 (stereo partly shown)	BRAF V600E (Homo sapiens, UniProt P15056, V600E)	> 500 nM

Entry O=C1CCC(N2Cc3cc(C4CCN(C[C@@H](O)Cc5ccc(-c6cnc7[nH]cc(C(=O)c8c(F)ccc(NS(=O)(=O)N9CC[C@@H](F)C9)c8F)c7c6)cc5)CC4)ccc3C2=O)C(=O)N1 (stereo partly shown) — recorded DC50 = > 500 nM

get_value(item= O=C1CCC(N2Cc3cc(N4CCC(CN5C[C@H]6CCN(c7ccc(-c8cnc9[nH]cc(C(=O)c%10c(F)ccc(NS(=O)(=O)N%11CC[C@@H](F)C%11)c%10F)c9c8)cc7)C[C@H]6C5)CC4)ccc3C2=O)C(=O)N1 (stereo partly shown) , readout=DC50) returns 5 to 50 nM
